Data origin, for the record: patent US20200181255A1

Molecular target: T1, recombinant human IL-23 (human, UniProt Q9NPF7 20-189; P29460 23-328)
T1 construct: also called rhuIL-23; recombinant human (rhu) IL-23
T1 sequence 1: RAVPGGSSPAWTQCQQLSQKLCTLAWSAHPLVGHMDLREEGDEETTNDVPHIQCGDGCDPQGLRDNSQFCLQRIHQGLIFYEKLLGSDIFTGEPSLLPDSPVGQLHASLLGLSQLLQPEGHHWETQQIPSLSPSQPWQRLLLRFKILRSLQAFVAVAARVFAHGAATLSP
T1 sequence 2: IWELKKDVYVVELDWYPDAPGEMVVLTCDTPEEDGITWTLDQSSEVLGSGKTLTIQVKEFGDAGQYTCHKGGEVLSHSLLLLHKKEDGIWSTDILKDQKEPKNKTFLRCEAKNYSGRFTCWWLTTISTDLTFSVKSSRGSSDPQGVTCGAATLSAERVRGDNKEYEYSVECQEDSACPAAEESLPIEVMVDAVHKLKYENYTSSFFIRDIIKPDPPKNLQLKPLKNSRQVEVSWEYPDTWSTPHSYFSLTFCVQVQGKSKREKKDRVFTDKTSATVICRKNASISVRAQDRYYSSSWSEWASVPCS
Assay: KinExA, solution equilibrium, rhuIL-23-coated beads
Property measured: Kd (pM)

# Binder, Value
data = [
    ("Antibody C (antibody, V domains shown, also called VH10/VL10) VH: QVQLQESGPGLVKPSQTLSLTCTVSGGSINSGGYYWSWIRQHPGKGLEWIGYIYYSGSSYYNPSLKSRVTISVDTSQNQFSLKLSSVTAADTAVYYCARDRGHYYGMDVWGQGTTVTVSS VL: DIQMTQSPSSVSASVGDRVTITCRASQGSSSWFAWYQQKPGKAPKLLIYAASSLQSGVPSRFSGSGSGTDFTLTISSLQPEDFATYYCQQANSFPFTFGPGTKVDIK", 2.56),
    ("Antibody B (antibody, V domains shown, also called VH9/VL9) VH: QVQLQESGPGLVKPSQTLSLTCTVSGGSISSGGYYWSWIRQHPGKGLEWIGHIHYSGNTYYNPSLKSRVTISVDTSKNQFSLKLSSVTAADTAVYYCAKNRGFYYGMDVWGQGTTVTVSS VL: DIQMTQSPSSVSASVGDRVTITCRASQVISSWLAWYQQKPGKAPSLLIYAASSLQSGVPSRFSGSVSGTDFTLTISSLQPEDFATYYCQQANSFPFTFGPGTKVDFK", 3.99),
    ("Antibody L (antibody, V domains shown, also called VH4/VL4) VH: QVQLVESGGGVVQPGRSLRLSCAASGFTFSSYAMHWVRQAPGKGLEWLSVISHDGSIKYYADSVKGRFTISRDNSKNTLYLQMNSLRAEDTAVYYCARERTTLSGSYFDYWGQGTLVTVSS VL: QAVLTQPSSLSASPGASASLTCTLRSGINVGTYRIYWYQQKPGSPPQYLLRYKSDSDKQQGSGVPSRFSGSKDASANAGILLISGLQSEDEADYYCMIWHSSASVFGGGTKLTVL", 1.08),
    ("Antibody G (antibody, V domains shown, also called VH12/VL12) VH: QVQLQESGPRLVKPSETLSLTCTVSGDSISSYFWSWIRQPPGKGLEWLGYIYYSGSTNYNPSLKSRVTISIDTSKNQFSLKLSSVTAADTAVYYCTRDRGSYYGSDYWGQGTLVTVSS VL: DIQMTQSPSSVSASVGDRVTITCRAGQVISSWLAWYQQKPGKAPKLLIYAASSLQSGVPSRFSGSGSGTDFTLTISSLQPDDFATYYCQQATSFPLTFGGGTKVEIK", 2),
]
